Target: NAD-dependent protein deacetylase sirtuin-1 (Homo sapiens, UniProt Q96EB6)
Sequence (Q96EB6 whole entry): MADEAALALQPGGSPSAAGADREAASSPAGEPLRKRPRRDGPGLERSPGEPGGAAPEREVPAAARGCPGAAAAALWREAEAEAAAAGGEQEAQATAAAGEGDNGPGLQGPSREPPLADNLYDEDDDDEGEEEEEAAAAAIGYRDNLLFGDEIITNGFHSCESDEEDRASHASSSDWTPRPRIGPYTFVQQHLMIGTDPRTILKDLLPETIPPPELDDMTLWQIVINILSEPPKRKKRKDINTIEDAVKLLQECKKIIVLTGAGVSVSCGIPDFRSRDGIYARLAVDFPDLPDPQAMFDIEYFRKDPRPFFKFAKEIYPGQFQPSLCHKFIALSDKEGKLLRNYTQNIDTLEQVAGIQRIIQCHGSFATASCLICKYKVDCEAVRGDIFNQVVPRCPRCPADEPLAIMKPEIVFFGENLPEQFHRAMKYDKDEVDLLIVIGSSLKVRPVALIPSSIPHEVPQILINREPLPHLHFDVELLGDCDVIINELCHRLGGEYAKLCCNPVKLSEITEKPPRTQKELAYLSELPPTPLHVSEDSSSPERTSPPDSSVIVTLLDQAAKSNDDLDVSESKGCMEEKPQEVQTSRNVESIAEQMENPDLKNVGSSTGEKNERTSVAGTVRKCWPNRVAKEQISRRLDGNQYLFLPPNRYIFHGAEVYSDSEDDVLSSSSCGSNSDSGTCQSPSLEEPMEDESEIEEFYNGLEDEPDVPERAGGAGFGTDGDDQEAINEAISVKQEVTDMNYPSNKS
pIC50: −log10 of the molar value.
// merged dataset of pIC50 values, system = NAD-dependent protein deacetylase sirtuin-1 (Homo sapiens, UniProt Q96EB6), multiple refs
Parameter: pIC50

[[record]]
compound = "N=C(Nc1ccccc1)SC1CC(=O)N(c2ccc(C(=O)O)cc2)C1=O (racemic)"
quantitative_result = 2.46

[[record]]
compound = "NC(=O)C1CN(Cc2ccccc2)c2ccccc2O1 (stereo unspecified)"
quantitative_result = 5.07

[[record]]
compound = "CNC(=O)[C@H](C)NC(=O)[C@H](CCCCNC(C)=O)NC(=O)[C@H](C)NC(C)=O"
quantitative_result = 4.06

[[record]]
compound = "NC(=O)C1CN(Cc2csc(N)n2)c2ccccc2O1 (stereo unspecified)"
quantitative_result = 5.83

[[record]]
compound = "CC1(C)CC(=O)C2=C(C1)N(NC(=O)c1ccccc1)C1=C(C(=O)CC(C)(C)C1)C2c1ccc(OCc2ccccc2)cc1"
quantitative_result = 4.34


[A] CC(=O)NCCCC[C@H](NC(=O)[C@H](CCCCNC(C)=S)NC(=O)[C@H](CCCCNC(C)=O)NC(C)=O)C(N)=O
[B] Cc1cccc(C)c1CN1CC(C(N)=O)Oc2ccccc21 (stereo unspecified)
Request: Of the two listed items, A and B , which carries the larger pIC50 figure? Pick one and reply with its label.
Result: A

[a] O=C(On1nnc2ncccc21)c1c[nH]c2ccc(Br)cc12
[b] O=C1CNC(=O)[C@H](CCCCNC(=S)CNC(=O)c2ccccc2Nc2cccc(OCCc3ccccc3)c2)N1
Request: Could you check which of a and b has a smaller value for pIC50? Pick one and reply with its label.
Result: b

###

// merged dataset of pIC50 values, system = NAD-dependent protein deacetylase sirtuin-1 (Homo sapiens), multiple refs
pIC50: −log10 of the molar value.
Parameter: pIC50

Check out these entries, answers already filled in.
[[record]]
molecule = "NC(=O)C1CN(Cc2ccc3c(c2)OCO3)c2ccccc2O1 (stereo not given)"
quantitative_result = 5.72

[[record]]
molecule = "COC(=O)[C@H](C)NC(=O)[C@H](CCCCNC(=O)C(C)(C)C)NC(=O)[C@H](C)NC(C)=O"
quantitative_result = 3.65

[[record]]
molecule = "NC(=O)C1CN(Cc2cccnc2)c2ccccc2O1 (stereo not given)"
quantitative_result = 5.33

[[record]]
molecule = "COc1ccc(C(=O)c2coc3c2cc(O)c2ccccc23)cc1"
quantitative_result = 3.59

[[record]]
molecule = "N#Cc1ccccc1CN1CC(C(N)=O)Oc2ccccc21 (stereo in doubt; 4.27)"
quantitative_result = 6.66

[[record]]
molecule = "CC(C)(C)OC(=O)Nc1nc(CN2CC(C(N)=O)Oc3ccccc32)cs1 (stereo not given)"
quantitative_result = 5.25

[[record]]
molecule = "CC(=O)Nc1ccccc1CN1CC(C(N)=O)Oc2ccccc21 (stereo not given)"
quantitative_result = 4.50

[[record]]
molecule = "CC1(C)CC(=O)C2=C(C1)N(Nc1ccc([N+](=O)[O-])cc1[N+](=O)[O-])C1=C(C(=O)CC(C)(C)C1)C2c1ccc(OCc2ccccc2)cc1"
quantitative_result = 4.36


[a] O=C1c2cccc3cccc(c23)C(=O)N1CCNCCCNCCCNCCN1C(=O)c2cccc3cccc(c23)C1=O
[b] NC(=O)C1CN(Cc2cccc(Br)c2)c2ccccc2O1 (stereo not given)
Request: Could you check which of a and b has a smaller value for pIC50? Pick one and reply with its label.
Result: a
(a: 4.37, b: 5.90)
